test: chemical genetic growth profiling, strain panel (AID 1159580);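 also: tested at 20 µM; growth read once vehicle control cultures reached saturation at 30 °C; 1 = growth at the plate median or of vehicle wells; lower values mean less growth of the strain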; details: S. cerevisiae deletion strains, growth OD, locus YHR142W, strain chs7, active compounds read low
Screen size: about 5,500 compounds; about 2,000 (36%) were called active. Another 18% or so got no clear call; they are omitted. This is one part of the list.
Record form. Attribute: normalized growth. Fill in for each entry.
Numbers only.

Consider the reported normalized growth for these compounds:
COMPOUND	normalized growth
C[N+]1(C)C[C@H](O)[C@H](C(=O)[O-])C1	0.98
COC(=O)C[C@H]1C(C)(C)[C@@H](O)[C@@H]2CC3=C4CC(O)O[C@@H](c5ccoc5)[C@]4(C)CCC3[C@@]1(C)C2=O (stereo not given in full)	0.994
O=c1c2cc(O)c(O)cc2oc2cc(O)c(C3O[C@H](CO)[C@H](O)[C@@H](O)[C@H]3O)c(O)c12 (stereo not given in full)	0.945
C[C@H]1O[C@@H](O[C@H]2[C@@H](O)C[C@H](O[C@H]3[C@@H](O)C[C@H](O[C@H]4CC[C@]5(C)C6CC[C@]7(C)[C@@H](C8=CC(=O)OC8)CC[C@]7(O)C6CC[C@@H]5C4)O[C@@H]3C)O[C@@H]2C)C[C@H](O)[C@@H]1O (stereo not given in full)	0.926
COc1c(O)cc2c(c1O)[C@H]1O[C@H](CO)[C@@H](O)[C@H](O)[C@@H]1OC2=O	1.05
CC(=O)OCC(=O)[C@@]1(O)CCC2C3C[C@H](C)C4=CC(=O)C=CC4(C)C3[C@@H](O)CC21C (stereo not given in full)	1.01
CN(C)CC[C@H](c1ccc(Cl)cc1)c1ccccn1	1.02
C[C@@H]1CC[C@@]23CCC4(C)[C@@](C=CC5[C@@]6(C)CC[C@H](O)C(C)(C)C6CC[C@]54C)(OC2=O)C3[C@H]1C (stereo not given in full)	1.06
C[C@H]1O[C@H](O[C@H]2[C@H](O)[C@@H](O)[C@@H](O[C@H]3[C@H](O)[C@@H](O)C(O)O[C@@H]3CO)O[C@@H]2CO)[C@H](O)[C@@H](O)[C@@H]1N[C@H]1C=C(CO)[C@@H](O)[C@H](O)[C@H]1O (stereo not given in full)	0.989
Cc1ncc(CO)c(CO)c1O	1.02

// for each compound in input: emit normalized growth
1. CC1(C)C(=O)CC[C@@]2(C)C1C[C@@H](O)[C@@]1(C)C3=CC(=O)O[C@@H](c4ccoc4)[C@]3(C)CCC21 (stereo not given in full)
2. COC1CC(OC2CCC3(C)C(CCC4C3CCC3(C)C(C5=CC(=O)OC5)C(OC(C)=O)CC43O)C2)OC(C)C1O (stereo not given)
3. CC(C)(C)NCC(O)COc1cccc2c1CCCC2=O (stereo not given)
4. CN(C)C(=O)C(CCN1CCC(O)(c2ccc(Cl)cc2)CC1)(c1ccccc1)c1ccccc1
5. C[C@@H]1CC[C@@]23CCC4(C)[C@@](C=CC5[C@@]6(C)CCC(=O)C(C)(C)C6CC[C@]54C)(OC2=O)C3[C@H]1C (stereo not given in full)

// result
1.04
1.02
0.986
1.01
0.97
